# Test system: HEK293
# test details: Cellular uptake in HEK293 cells assessed as labeled cells at 1 uM after 24 hrs by flow cytometry
# Type: ADME, cell-based
# condition context: human, hek293, 24 h
measured property: Drug uptake (%)
Write the value in % as a bare number.

Answered cases to consult:
smiles entry: CN(C)CCCNC(=O)c1nc(NC(=O)c2nc(NC(=O)c3nc(NC(=O)CCNc4nc(NC(=O)c5nc(NC(=O)c6nc(NC(=O)CCNC(=S)Nc7ccc(-c8c9ccc(=O)cc-9oc9cc(O)ccc89)c(C(=O)O)c7)cn6C)cn5C)cn4C)cn3C)cn2C)cn1C
unit info: %
Drug uptake: 39

smiles entry: CN(C)CCCNC(=O)c1cc(NC(=O)c2cc(NC(=O)c3cc(NC(=O)CCNC(=S)Nc4ccc(-c5c6ccc(=O)cc-6oc6cc(O)ccc56)c(C(=O)O)c4)cn3C)cn2C)cn1C
unit info: %
Drug uptake: 53

Next molecule, please.
Query :: Quick one: Drug uptake for `CN(C)CCCNC(=O)c1nc(NC(=O)c2nc(NC(=O)c3nc(NC(=O)CCNc4nc(NC(=O)c5nc(NC(=O)c6nc(NC(=O)CCNc7nc(NC(=O)c8nc(NC(=O)c9nc(NC(=O)CCNC(=S)Nc%10ccc(-c%11c%12ccc(=O)cc-%12oc%12cc(O)ccc%11%12)c(C(=O)O)c%10)cn9C)cn8C)cn7C)cn6C)cn5C)cn4C)cn3C)cn2C)cn1C` ?
Result :: 3
